assay: Pharmacokinetics (plasma and brain levels) in ICR (CD-1) mice; assay type: in vivo; conditions: male, ICR (CD-1), mouse, brain/plasma, iv, 1 mg/kg, i.v. 1 mg/kg, mouse, 1.00 h; read-out: Brain/Plasma ratio, individual animal
A collection of molecules and their measured Kp at 1 h

molecule	Kp at 1 h
CC(=O)Nc1ccc(-c2cnc3cc(Cl)ccc3n2)cc1 [CA77.1]	5.44
CC(=O)Nc1ccc(C2=Nc3ccc(Cl)cc3OC2)cc1 [CA77, reference compound]	178

###

experiment: Pharmacokinetics (plasma and brain levels) in ICR (CD-1) mice; type: in vivo; settings: i.v. 1 mg/kg, ICR (CD-1) mice

molecule	units_label	CL obs
CC(=O)Nc1ccc(-c2cnc3cc(Cl)ccc3n2)cc1 [CA77.1]	mL/min/kg	53
